# credit: patent US20260248972A1

Assay: in vivo
Settings: BALB/c nude, mouse, in vivo, iv, total radioactivity, % ID/g Lung

- molecule: "C[C@@H](O)[C@H](NC(=O)[C@@H]1CSSC[C@H](NC(=O)[C@@H](Cc2ccccc2)NC(=O)[C@H](CCCCNC(=O)c2cccc(NC(=O)N[C@@H]3CN(C4CCCCC4)c4ccccc4N(CC(=O)C(C)(C)C)C3=O)c2)NC(=O)COCCOCCNC(=O)CN2CCN(CC(=O)O)CCN(CC(=O)O)CCN(CC(=O)O)CC2)C(=O)N[C@@H](Cc2ccc(O)cc2)C(=O)N[C@H](Cc2c[nH]c3ccccc23)C(=O)N[C@@H](CCCCN)C(=O)N[C@@H]([C@@H](C)O)C(=O)N1)C(=O)O [^177Lu-I-35, metal not drawn]"
  tissue uptake at 72 h [%ID/g]: 0.66
- molecule: "C[C@@H](O)[C@H](NC(=O)[C@@H]1CSSC[C@H](NC(=O)[C@@H](Cc2ccccc2)NC(=O)COCCOCCNC(=O)COCCOCCNC(=O)[C@H](CCCCNC(=O)c2cccc(NC(=O)N[C@@H]3CN(C4CCCCC4)c4ccccc4N(CC(=O)C(C)(C)C)C3=O)c2)NC(=O)CN2CCN(CC(=O)O)CCN(CC(=O)O)CCN(CC(=O)O)CC2)C(=O)N[C@@H](Cc2ccc(O)cc2)C(=O)N[C@H](Cc2c[nH]c3ccccc23)C(=O)N[C@@H](CCCCN)C(=O)N[C@@H]([C@@H](C)O)C(=O)N1)C(=O)O [Compound 177Lu-I-39, metal not drawn]"
  tissue uptake at 72 h [%ID/g]: 0.87
- molecule: "C[C@@H](O)[C@H](NC(=O)[C@@H]1CSSC[C@H](NC(=O)[C@@H](Cc2ccccc2)NC(=O)[C@H](CCCCNC(=O)COCCOCCNC(=O)c2cccc(NC(=O)N[C@@H]3CN(C4CCCCC4)c4ccccc4N(CC(=O)C(C)(C)C)C3=O)c2)NC(=O)CN2CCN(CC(=O)O)CCN(CC(=O)O)CCN(CC(=O)O)CC2)C(=O)N[C@@H](Cc2ccc(O)cc2)C(=O)N[C@H](Cc2c[nH]c3ccccc23)C(=O)N[C@@H](CCCCN)C(=O)N[C@@H]([C@@H](C)O)C(=O)N1)C(=O)O [^177Lu-I-36, metal not drawn]"
  tissue uptake at 72 h [%ID/g]: 1.36
- molecule: "C[C@@H](O)[C@H](NC(=O)[C@@H]1CSSC[C@H](NC(=O)[C@@H](Cc2ccccc2)NC(=O)COCCOCCNC(=O)[C@H](CCCCNC(=O)c2cccc(NC(=O)N[C@@H]3CN(C4CCCCC4)c4ccccc4N(CC(=O)C(C)(C)C)C3=O)c2)NC(=O)CN2CCN(CC(=O)O)CCN(CC(=O)O)CCN(CC(=O)O)CC2)C(=O)N[C@@H](Cc2ccc(O)cc2)C(=O)N[C@H](Cc2c[nH]c3ccccc23)C(=O)N[C@@H](CCCCN)C(=O)N[C@@H]([C@@H](C)O)C(=O)N1)C(=O)O [Compound 177Lu-I-37, metal not drawn]"
  tissue uptake at 72 h [%ID/g]: 1.41
- molecule: "C[C@@H](O)[C@H](NC(=O)[C@@H]1CSSC[C@H](NC(=O)[C@@H](Cc2ccccc2)NC(=O)CN2CCN(CC(=O)O)CCN(CC(=O)O)CCN(CC(=O)O)CC2)C(=O)N[C@@H](Cc2ccc(O)cc2)C(=O)N[C@H](Cc2c[nH]c3ccccc23)C(=O)N[C@@H](CCCCN)C(=O)N[C@@H]([C@@H](C)O)C(=O)N1)C(=O)O [^177Lu-C-1, metal not drawn, reference compound]"
  tissue uptake at 72 h [%ID/g]: 0.21
